System: Pseudomonas aeruginosa
Experiment: Antibiofilm activity against Pseudomonas aeruginosa PAO1 assessed as inhibition of biofilm formation incubated for 24 hrs by crystal violet staining based assay
Format: functional, organism-based
Details: PAO1, 24 h
value-kind: pIC50
Keep in mind that pIC50 stands for -log10 of concentration in molar terms.

q: Identify pIC50 associated with the molecule `Cc1cccc(/C=C2/C(c3cccc(C)c3)=CC(=O)N2Cc2ccccc2)c1`
a: 6.59

---

Test: Inhibition of Staphylococcus aureus sortase A by FRET assay
Catalogue of compounds with associated IC50
Quick reminder: number only, in µM, skip the unit.

CC(=O)/C(=N\Nc1cccc(Cl)c1)C(=O)O    87
CC(=O)/C(=N\Nc1ccc(Cl)c(Cl)c1)C(=O)O    50
CC(=O)/C(=N\Nc1ccccc1)C(=O)O    80

Now take the following compound into account.
q: Fill in IC50 for record `CC(=O)/C(=N\Nc1ccc([N+](=O)[O-])cc1)C(=O)O`
a: 57
